Cited source: patent US20200223889A1

biological target: human MC4R (Homo sapiens); construct: expressed in transfected cells; experiment: Functional cAMP assay (CisBio HTRF) in BHK cells expressing human MC4R; format: cell-based; conditions: MC1R cAMP EC50 divided by MC4R cAMP EC50
Sequence (P32245 whole entry): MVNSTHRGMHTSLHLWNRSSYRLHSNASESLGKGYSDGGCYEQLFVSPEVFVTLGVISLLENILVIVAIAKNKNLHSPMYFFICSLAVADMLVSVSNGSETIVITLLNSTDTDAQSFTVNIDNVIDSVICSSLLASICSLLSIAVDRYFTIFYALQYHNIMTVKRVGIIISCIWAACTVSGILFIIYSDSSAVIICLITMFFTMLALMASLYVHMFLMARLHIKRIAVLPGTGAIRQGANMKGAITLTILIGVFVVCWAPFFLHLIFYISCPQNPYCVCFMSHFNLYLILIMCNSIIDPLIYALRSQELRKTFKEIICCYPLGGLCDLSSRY
Positions of bridges follow the written chain, without caps; N, C: chain ends. Non-standard residues stand in square brackets, D forms with d. Residues, ends and D or L forms follow the SMILES beside them.
measurement_kind: MC1R/MC4R cAMP EC50 ratio
Format: numeric value only, no unit, no commentary.

In plain terms, N=C(N)NCCC[C@@H]1NC(=O)[C@H](Cc2c[nH]c3ccccc23)NC(=O)[C@H](CCCNC(=N)N)NC(=O)[C@@H](Cc2ccccc2)NC(=O)[C@H](Cc2c[nH]cn2)NC(=O)[C@@H]2CSSC[C@H](NC1=O)C(=O)N[C@@H](Cc1c[nH]cn1)C(=O)N[C@H](Cc1ccccc1)C(=O)N[C@@H](CCCNC(=N)N)C(=O)N[C@@H](Cc1c[nH]c3ccccc13)C(=O)N[C@@H](CCCNC(=N)N)C(=O)N2 [Chem. 68] (cyclo(CH[dF]RWRCH[dF]RWR); disulfide 1-7) has a documented MC1R/MC4R cAMP EC50 ratio of 1
